Tested on: HeLa cell
Experiment: Cell penetration of pep(CPP)-FITC conjugate in HeLa cell line, flow cytometry (FACS)
Type: cell-based, Homo sapiens
Settings: HeLa cells, 20 uM FITC-fused peptide, 37° C. for an hour, control = FITC only
Procedure: Homo sapiens cervix adenocarcinoma cell line as HeLa cell lines were purchased from ATCC (American Type Cell Culture). […] The cell line was divided in a 6-well plate and cultured in a medium containing 10% fetal bovine serum (Invitrogen, USA), 100 μg/ml penicillin, 100 units/ml streptomycin at 37° C. […] After then, the cells were suspended in 0.5 ml of PBS containing 4% Paraformaldehyde and fluorescence of the cells was analyzed using FACS Calibur (Becton Dickinson). […]
REPORTED ENDPOINT: cellular uptake, MFI (Mean Fluorescence Intensity)
Please reply with the number alone, leaving off any unit.

**Q:** Consider the sequence EVRQHREARPALLTSRLRFIPKPDGL (listed as Homo sapiens) [Pep-RIA-43] . State its measured cellular uptake, MFI (Mean Fluorescence Intensity).
**A:** 15.34

**Q:** For the sequence HREARPALLTSRLRFIPKPDGLRPI (listed as Homo sapiens) [Pep-RIA-62] , report cellular uptake, MFI (Mean Fluorescence Intensity).
**A:** 18.89

**Q:** Specify cellular uptake, MFI (Mean Fluorescence Intensity) for EVRQHREARPALLTSRLRFIPK (listed as Homo sapiens) [Pep-RIA-6] and stop.
**A:** 16.09

**Q:** Return cellular uptake, MFI (Mean Fluorescence Intensity) (reported value) for this sequence: QLRELSEAEVRQHREARPALLTSRLRFIPK (listed as Homo sapiens) [Pep-RIA-14]
**A:** 23.67

---

I'd appreciate it if you could supply cellular uptake, MFI (Mean Fluorescence Intensity) values for the items below.
tested on: HeLa cell; experiment: Cell penetration of pep(CPP)-FITC conjugate in HeLa cell line, flow cytometry (FACS); format: cell-based, Homo sapiens; conditions: HeLa cells, 20 uM FITC-fused peptide, 37° C. for an hour, control = FITC only
// print number alone

**Q:** Give me measured cellular uptake, MFI (Mean Fluorescence Intensity), please, for this substance: REARPALLTSRLRFIPKPD (listed as Homo sapiens) [Pep-RIA-18]
**A:** 13.4

**Q:** Could you please provide reported cellular uptake, MFI (Mean Fluorescence Intensity) for EAEVRQHREARPALLTSRLRFIPK (listed as Homo sapiens) [Pep-RIA-8] ? Thanks!
**A:** 14.12

**Q:** Look up and state reported cellular uptake, MFI (Mean Fluorescence Intensity) for QHREARPALLTSRLRFIPKPDGL (listed as Homo sapiens) [Pep-RIA-28]
**A:** 14.8

**Q:** Give me measured cellular uptake, MFI (Mean Fluorescence Intensity), please, for this substance: PALLTSRL (listed as Homo sapiens) [Pep-RIA-133]
**A:** 12.95

**Q:** Fill in cellular uptake, MFI (Mean Fluorescence Intensity) for record ARPALLTSRL (listed as Homo sapiens) [Pep-RIA-113]
**A:** 11.54

**Q:** Answer with the recorded cellular uptake, MFI (Mean Fluorescence Intensity) of RPALLT (listed as Homo sapiens) [Pep-RIA-126] only.
**A:** 11.51

**Q:** Assign cellular uptake, MFI (Mean Fluorescence Intensity) to the following record: EARPALLTSRLRFIPKPDGLR (listed as Homo sapiens) [Pep-RIA-68]
**A:** 14.94

**Q:** Hello, please tell me recorded cellular uptake, MFI (Mean Fluorescence Intensity) for this one: EVRQHREARPALLTSRLRFIPKPDG (listed as Homo sapiens) [Pep-RIA-42]
**A:** 15.27

**Q:** Given LSEAEVRQHREARPALLTSRLRFIPK (listed as Homo sapiens) [Pep-RIA-10] , respond with its cellular uptake, MFI (Mean Fluorescence Intensity).
**A:** 14.64

**Q:** Identify measured cellular uptake, MFI (Mean Fluorescence Intensity) associated with RQHREARPALLISRLRFIPKPD (RQHREARPALLTSRLRFIPKPD; listed as Homo sapiens) [Pep-RIA-25]
**A:** 17.41

**Q:** Annotate the substance EARPALLTSRLRFIPKPDGLRPIVNMDYV (listed as Homo sapiens) [Pep-RIA-76] with its measured cellular uptake, MFI (Mean Fluorescence Intensity).
**A:** 22.07

**Q:** Give a short answer stating reported cellular uptake, MFI (Mean Fluorescence Intensity) for ARPALLTSRLRF (listed as Homo sapiens) [Pep-RIA-111] .
**A:** 20.53

**Q:** State, in one line, measured cellular uptake, MFI (Mean Fluorescence Intensity) of REARPALLTSRLRFIPKP (listed as Homo sapiens) [Pep-RIA-15]
**A:** 16.32

**Q:** Provide measured cellular uptake, MFI (Mean Fluorescence Intensity) value, entry: EVRQHREARPALLTSRLRFIPKPDGLRPI (listed as Homo sapiens) [Pep-RIA-58]
**A:** 17.96

**Q:** Please list cellular uptake, MFI (Mean Fluorescence Intensity) recorded for the substance AEVRQHREARPALLTSRLRFIPK (listed as Homo sapiens) [Pep-RIA-7]
**A:** 16.49

**Q:** Note down cellular uptake, MFI (Mean Fluorescence Intensity) recorded for HREARPALLTSRLRFIPKPDGLR (listed as Homo sapiens) [Pep-RIA-38]
**A:** 18.02

**Q:** Please list cellular uptake, MFI (Mean Fluorescence Intensity) recorded for the substance EARPALLTSR (listed as Homo sapiens) [Pep-RIA-83]
**A:** 10.27

**Q:** Name the recorded cellular uptake, MFI (Mean Fluorescence Intensity) of the substance listed here: HREARPALLTSRLRFIPKPDGLRP (listed as Homo sapiens) [Pep-RIA-49]
**A:** 15.15

**Q:** Item PALLTSRLR (listed as Homo sapiens) [Pep-RIA-132] : provide cellular uptake, MFI (Mean Fluorescence Intensity)
**A:** 13.72

---

tested on: HeLa cell; test: Cell penetration of pep(CPP)-FITC conjugate in HeLa cell line, flow cytometry (FACS); type: cell-based, Homo sapiens; conditions: HeLa cells, 20 uM FITC-fused peptide, 37° C. for an hour, control = FITC only
Would you kindly list cellular uptake, MFI (Mean Fluorescence Intensity) for each of these substances?
Kindly provide the number alone.

**Q:** Look up and state reported cellular uptake, MFI (Mean Fluorescence Intensity) for ARPALLTSRLRFI (listed as Homo sapiens) [Pep-RIA-110]
**A:** 11.89

**Q:** Could you please provide reported cellular uptake, MFI (Mean Fluorescence Intensity) for PALLTSR (listed as Homo sapiens) [Pep-RIA-134] ? Thanks!
**A:** 13.28

**Q:** Look up cellular uptake, MFI (Mean Fluorescence Intensity) of AEVRQHREARPALLTSRLRFIPKP (listed as Homo sapiens) [Pep-RIA-51] and report it.
**A:** 15.13

**Q:** Respond only with cellular uptake, MFI (Mean Fluorescence Intensity) recorded for EARPALLTSRLRFI (listed as Homo sapiens) [Pep-RIA-79]
**A:** 10.73

**Q:** Read the entry EVRQHREARPALLTSRLRFIPKP (listed as Homo sapiens) [Pep-RIA-40] and write its reported cellular uptake, MFI (Mean Fluorescence Intensity).
**A:** 15.14

**Q:** Please give measured cellular uptake, MFI (Mean Fluorescence Intensity) of the following entry: RPALLTSRLRFIPK (listed as Homo sapiens) [Pep-RIA-92]
**A:** 26.28

**Q:** Please give the documented cellular uptake, MFI (Mean Fluorescence Intensity) of ALLTSR (listed as Homo sapiens) [Pep-RIA-142]
**A:** 13.23

**Q:** Answer with the recorded cellular uptake, MFI (Mean Fluorescence Intensity) for the substance listed here: EARPALLTSRLRFIPKPDGLRPIV (listed as Homo sapiens) [Pep-RIA-71]
**A:** 17.21

**Q:** Note cellular uptake, MFI (Mean Fluorescence Intensity) for the substance shown: LRELSEAEVRQHREARPALLTSRLRFIPK (listed as Homo sapiens) [Pep-RIA-13]
**A:** 15.37

**Q:** Answer with the recorded cellular uptake, MFI (Mean Fluorescence Intensity) for the substance listed here: RPALLTS (listed as Homo sapiens) [Pep-RIA-125]
**A:** 11.07

**Q:** Give cellular uptake, MFI (Mean Fluorescence Intensity) for LRFIPK (listed as Homo sapiens) [Pep-RIA-100]
**A:** 14.69

**Q:** Output measured cellular uptake, MFI (Mean Fluorescence Intensity) for this item: REARPALLTSRLRFIPKPDG (listed as Homo sapiens) [Pep-RIA-23]
**A:** 16.57

**Q:** Kindly indicate its recorded cellular uptake, MFI (Mean Fluorescence Intensity). Item: EARPALLTSRLRFIP (listed as Homo sapiens) [Pep-RIA-78]
**A:** 13.95

**Q:** For the substance AEVRQHREARPALLTSRLRFIPKPDGL (listed as Homo sapiens) [Pep-RIA-54] , report cellular uptake, MFI (Mean Fluorescence Intensity).
**A:** 13.71

**Q:** Answer with reported cellular uptake, MFI (Mean Fluorescence Intensity) of EARPAL (listed as Homo sapiens) [Pep-RIA-87]
**A:** 9.6

**Q:** Item RQHREARPALLTSRLRFIPKPDGLRPI (listed as Homo sapiens) [Pep-RIA-60] : provide cellular uptake, MFI (Mean Fluorescence Intensity)
**A:** 15.93

**Q:** Answer with the recorded cellular uptake, MFI (Mean Fluorescence Intensity) of AEVRQHREARPALLTSRLRFIPKPDGLRPI (listed as Homo sapiens) [Pep-RIA-57] only.
**A:** 16.75

**Q:** Note cellular uptake, MFI (Mean Fluorescence Intensity) for the substance shown: LLTSRLRFIPK (listed as Homo sapiens) [Pep-RIA-95]
**A:** 25.79

**Q:** Query cellular uptake, MFI (Mean Fluorescence Intensity) for ELSEAEVRQHREARPALLTSRLRFIPK (listed as Homo sapiens) [Pep-RIA-11]
**A:** 15.22

**Q:** Fill in cellular uptake, MFI (Mean Fluorescence Intensity) for record SRLRFIPK (listed as Homo sapiens) [Pep-RIA-98]
**A:** 14.04

**Q:** Output measured cellular uptake, MFI (Mean Fluorescence Intensity) for this item: HREARPALLTSRLRFIPKPDGL (listed as Homo sapiens) [Pep-RIA-29]
**A:** 15.26

**Q:** Give the measured cellular uptake, MFI (Mean Fluorescence Intensity) for HREARPALLTSRLRFIPKP (listed as Homo sapiens) [Pep-RIA-16]
**A:** 15.96

**Q:** Supply recorded cellular uptake, MFI (Mean Fluorescence Intensity) for EARPALLTSRLRFIPKPDGLRP (listed as Homo sapiens) [Pep-RIA-69] here.
**A:** 13.72

**Q:** Quickly give me recorded cellular uptake, MFI (Mean Fluorescence Intensity) for AEVRQHREARPALLTSRLRFIPKPDG (listed as Homo sapiens) [Pep-RIA-53]
**A:** 15.85

**Q:** Identify measured cellular uptake, MFI (Mean Fluorescence Intensity) corresponding to LLTSRLR (listed as Homo sapiens) [Pep-RIA-149]
**A:** 16.2

**Q:** Given the substance LTSRLRFI (listed as Homo sapiens) [Pep-RIA-154] , write its reported cellular uptake, MFI (Mean Fluorescence Intensity).
**A:** 12.21

**Q:** Consider the substance ARPALLT (listed as Homo sapiens) [Pep-RIA-116] . State its measured cellular uptake, MFI (Mean Fluorescence Intensity).
**A:** 11.32

**Q:** Assign cellular uptake, MFI (Mean Fluorescence Intensity) to the following record: RQHREARPALLTSRLRFIPKPDGLR (listed as Homo sapiens) [Pep-RIA-36]
**A:** 14.07

**Q:** Quick one: give measured cellular uptake, MFI (Mean Fluorescence Intensity) for HREARPALLTSRLRFIPK (listed as Homo sapiens) [Pep-RIA-2]
**A:** 20.56

**Q:** Identify measured cellular uptake, MFI (Mean Fluorescence Intensity) associated with ARPALL (listed as Homo sapiens) [Pep-RIA-117]
**A:** 15.06

**Q:** State, in one line, measured cellular uptake, MFI (Mean Fluorescence Intensity) of LLTSRLRFI (listed as Homo sapiens) [Pep-RIA-147]
**A:** 14.93

**Q:** Annotate the substance EARPALLTSRLRFIPKP (listed as Homo sapiens) [Pep-RIA-64] with its measured cellular uptake, MFI (Mean Fluorescence Intensity).
**A:** 15.51

**Q:** Read the entry SEAEVRQHREARPALLTSRLRFIPK (listed as Homo sapiens) [Pep-RIA-9] and write its reported cellular uptake, MFI (Mean Fluorescence Intensity).
**A:** 12.7

**Q:** Complete the entry with cellular uptake, MFI (Mean Fluorescence Intensity) for TSRLRFIPK (listed as Homo sapiens) [Pep-RIA-97]
**A:** 13.68

**Q:** # return recorded cellular uptake, MFI (Mean Fluorescence Intensity) for input EARPALLTSRLRFIPKPDGLRPIVNMDYVV (listed as Homo sapiens) [Pep-RIA-77]
**A:** 87.67

**Q:** Complete the entry with cellular uptake, MFI (Mean Fluorescence Intensity) for EARPALLTSRLRFIPKPDGLRPIVNMD (listed as Homo sapiens) [Pep-RIA-74]
**A:** 21.77

**Q:** Please list cellular uptake, MFI (Mean Fluorescence Intensity) recorded for the substance SRLRFI (listed as Homo sapiens) [Pep-RIA-166]
**A:** 6.97

**Q:** Please report cellular uptake, MFI (Mean Fluorescence Intensity) for the following substance: EARPALLTSRLR (listed as Homo sapiens) [Pep-RIA-81]
**A:** 14.63
